Value source: a melting point compilation (Tetko et al.; mined from patent text by program, amines drawn as free bases though some values may be those of a salt)

Residues, ends and D or L forms follow the SMILES beside them. *: point of attachment. Cbz = O=C(OCc1ccccc1)*
measurement.name: melting point

Solved cases (6 shown):
# compound, melting point
records = [
    ("COC(=O)C(CC(C)C)NC(=O)C(Cc1ccccc1)NC(=O)OCc1ccccc1 (stereo not drawn) (Cbz-Phe-Leu-OMe; configuration not given here)", "125 to 126 °C"),
    ("CN1CCN(c2nc(-c3ccccc3)nc3nc(-c4ccncc4)[nH]c23)CC1", "333 to 337 °C"),
    ("O=[N+]([O-])c1ccc(-n2nnnc2-c2ccccc2-c2ccc(CBr)cc2)cc1", "192 to 195 °C"),
    ("CN(CCP(O)O)c1cc(Oc2ccc(C(F)(F)F)cc2Cl)ccc1[N+](=O)[O-]", "161 to 164 °C"),
    ("NC(=O)CC1Cc2cc(Br)cc3[nH]c(=O)c(=O)n1c23 (configuration not stated)", "> 300 °C"),
    ("CS(=O)(=O)Nc1cc(O)c2c(c1)C(=O)c1cccc(O)c1C2=O", "> 300 °C"),
]

From here, focus on the item given below.
(Q) # get_value(readout='melting point', item= `CN1CCC(Oc2ccccc2[N+](=O)[O-])(c2ccccc2)CC1` )
(A) 80 to 82 °C

====

measurement.name: melting point

Solved cases (10 shown):
# compound, melting point
measured = [
    ("O=S1NC(CC2=C(Cl)c3ccccc3CC2)=NO1 (stereo not drawn)", "90.5 to 91.5 °C"),
    ("O=[N+]([O-])c1cc(C(F)(F)F)ccc1NC1CCCCC1", "80.1 °C"),
    ("Cc1cncc2c1C(=N)N(Cc1ccccc1)S2(=O)=O", "37 to 39 °C"),
    ("CC(=O)OC1C(OC(=O)c2ccc(N)cc2)C=C(C)C(=O)CC1(C)C (stereo not drawn)", "158 to 160 °C"),
    ("CCC1(CC)COC(=O)N1c1nc(-c2ccc(C#N)cc2)c(F)s1", "151 to 153 °C"),
    ("COCC(COC)(CN(C)CCP(C)(C)=S)SCc1ccccc1", "74 °C"),
    ("Cn1c(C#N)ccc1-c1cc(F)c2c(c1)C1(CC1)C(=O)N2", "228 to 231 °C"),
    ("N#Cc1cc(C(=O)O)cc(O)c1O", "269 to 271 °C"),
    ("COc1ccc2c(O)cccc2c1", "73 to 75 °C"),
    ("O=C1CCCC12CNc1ccc(Cl)cc12 (stereo not drawn)", "201 to 202 °C"),
]

From here, focus on the item given below.
(Q) # get_value(readout='melting point', item= Cc1cccc(NC(=O)C(C)Oc2ccc(Oc3ccc(C#N)cc3)cc2)n1 (stereo not drawn) )
(A) 109 to 111 °C

====

Reported values of melting point for individual entries
Value expressed in °C; do not type the unit.

# molecule, unit.label, melting point
rows = [
    ("CC#CCOc1ccc(SC(C(=O)NO)C2CCCCC2)cc1 (stereo not given)", "°C", 163),
]

(Q) # get_value(readout='melting point', item= COC(=O)COc1ccc(C)c2c1c1c(n2Cc2ccccc2)CCCC1C(N)=O (stereo not given) )
(A) 209

====

measurement.name: melting point

Solved cases (3 shown):
# compound, measurement.name, recorded.value
data = [
    ("CCC(CC)(CO)Nc1nc(-c2ccc(C#N)cc2)cs1", "melting point", "118 to 120 °C"),
    ("O=C(COC1Cc2cccc(O)c2CC1OCC(=O)N1CCOCC1)N1CCOCC1 (stereo not given)", "melting point", "68 to 77 °C"),
    ("COC(=O)C1C=CCN2C(=O)C(C)(CCOS(C)(=O)=O)C(=O)N12 (stereo not given)", "melting point", "104 to 105 °C"),
]

(Q) # get_value(readout='melting point', item= CCOC(=O)c1ncn2c1C(C)N=C(c1ccccc1)c1cc(Br)ccc1-2 (stereo not given) )
(A) 164 to 165 °C

(Q) # get_value(readout='melting point', item= `CCOC(=O)c1cc(=O)c2c(ccc3c4ccccc4c(=O)oc32)o1` )
(A) 240 to 242 °C
